Test: Timed organ biodistribution of [^64Cu]Cu-DOTATATE by ex vivo gamma counting
Type: in vivo, mice
Details: mouse, muscle, intravenous, 1.85 MBq, total radioactivity; female C57BL/6 mice, 120 min after injection, median (IQR), N=3-7; read-out: Tissue radioactivity, muscle
Description: Wild-type and atherosclerotic animals were injected with approximately 1.85 MBq of [^64Cu]Cu-DOTATATE and euthanized at either 1, 5, 15, 30, 60 or 120 min after injection (Supplementary Fig. S1A) to evaluate the tracer’s biodistribution. […] Values were corrected for decay and normalized to tissue weight to express radioactivity concentration as percentage injected dose per gram (%ID/g). […] Plasma (supernatant) and cells (pellet) were gamma counted and expressed as percentage of total activity. […]
REPORTED ENDPOINT: tissue uptake at 2 h (%ID/g)
Response body: numeric value in %ID/g, unit text excluded.

Q: Any idea what its tissue uptake at 2 h is? The compound is C[C@@H](O)[C@H](NC(=O)[C@@H]1CSSC[C@H](NC(=O)[C@@H](Cc2ccccc2)NC(=O)CN2CCN(CC(=O)O)CCN(CC(=O)O)CCN(CC(=O)O)CC2)C(=O)N[C@@H](Cc2ccc(O)cc2)C(=O)N[C@H](Cc2c[nH]c3ccccc23)C(=O)N[C@@H](CCCCN)C(=O)N[C@@H]([C@@H](C)O)C(=O)N1)C(=O)O [[^64Cu]Cu-DOTATATE, metal not drawn]
A: 0.3

###

test: Timed organ biodistribution of [^64Cu]Cu-DOTATATE by ex vivo gamma counting; assay type: in vivo, mice; settings: mouse, small intestine, intravenous, 1.85 MBq, total radioactivity; female Apoe^-/- mice 12 weeks on Western Diet, 120 min after injection, median (IQR), N=3-8; read-out: Tissue radioactivity, small intestine
REPORTED ENDPOINT: tissue uptake at 2 h
The number alone won't do; follow it with the unit.

Q: Any idea what its tissue uptake at 2 h is? The compound is C[C@@H](O)[C@H](NC(=O)[C@@H]1CSSC[C@H](NC(=O)[C@@H](Cc2ccccc2)NC(=O)CN2CCN(CC(=O)O)CCN(CC(=O)O)CCN(CC(=O)O)CC2)C(=O)N[C@@H](Cc2ccc(O)cc2)C(=O)N[C@H](Cc2c[nH]c3ccccc23)C(=O)N[C@@H](CCCCN)C(=O)N[C@@H]([C@@H](C)O)C(=O)N1)C(=O)O [[^64Cu]Cu-DOTATATE, metal not drawn]
A: 7.2 %ID/g

###

test: Timed organ biodistribution of [^64Cu]Cu-DOTATATE by ex vivo gamma counting; assay type: in vivo, mice; settings: mouse, lungs, intravenous, 1.85 MBq, total radioactivity; female Apoe^-/- mice 12 weeks on Western Diet, 60 min after injection, median (IQR), N=3-8; read-out: Tissue radioactivity, lungs
REPORTED ENDPOINT: tissue uptake at 1 h (%ID/g)
Response body: numeric value in %ID/g, unit text excluded.

Q: Any idea what its tissue uptake at 1 h is? The compound is C[C@@H](O)[C@H](NC(=O)[C@@H]1CSSC[C@H](NC(=O)[C@@H](Cc2ccccc2)NC(=O)CN2CCN(CC(=O)O)CCN(CC(=O)O)CCN(CC(=O)O)CC2)C(=O)N[C@@H](Cc2ccc(O)cc2)C(=O)N[C@H](Cc2c[nH]c3ccccc23)C(=O)N[C@@H](CCCCN)C(=O)N[C@@H]([C@@H](C)O)C(=O)N1)C(=O)O [[^64Cu]Cu-DOTATATE, metal not drawn]
A: 2.5

###

experiment: Timed organ biodistribution of [^64Cu]Cu-DOTATATE by ex vivo gamma counting; type: in vivo, mice; details: mouse, abdominal aorta, intravenous, 1.85 MBq, total radioactivity; female C57BL/6 mice, 15 min after injection, median (IQR), N=3-7; read-out: Tissue radioactivity, abdominal aorta
REPORTED ENDPOINT: tissue uptake at 0.25 h (%ID/g)
Response body: numeric value in %ID/g, unit text excluded.

Q: Any idea what its tissue uptake at 0.25 h is? The compound is C[C@@H](O)[C@H](NC(=O)[C@@H]1CSSC[C@H](NC(=O)[C@@H](Cc2ccccc2)NC(=O)CN2CCN(CC(=O)O)CCN(CC(=O)O)CCN(CC(=O)O)CC2)C(=O)N[C@@H](Cc2ccc(O)cc2)C(=O)N[C@H](Cc2c[nH]c3ccccc23)C(=O)N[C@@H](CCCCN)C(=O)N[C@@H]([C@@H](C)O)C(=O)N1)C(=O)O [[^64Cu]Cu-DOTATATE, metal not drawn]
A: 2.4

###

assay: Timed organ biodistribution of [^64Cu]Cu-DOTATATE by ex vivo gamma counting; format: in vivo, mice; settings: mouse, heart, intravenous, 1.85 MBq, total radioactivity; female C57BL/6 mice, 5 min after injection, median (IQR), N=3-7; read-out: Tissue radioactivity, heart
REPORTED ENDPOINT: tissue uptake at 5 min (%ID/g)
Response body: numeric value in %ID/g, unit text excluded.

Q: Any idea what its tissue uptake at 5 min is? The molecule is C[C@@H](O)[C@H](NC(=O)[C@@H]1CSSC[C@H](NC(=O)[C@@H](Cc2ccccc2)NC(=O)CN2CCN(CC(=O)O)CCN(CC(=O)O)CCN(CC(=O)O)CC2)C(=O)N[C@@H](Cc2ccc(O)cc2)C(=O)N[C@H](Cc2c[nH]c3ccccc23)C(=O)N[C@@H](CCCCN)C(=O)N[C@@H]([C@@H](C)O)C(=O)N1)C(=O)O [[^64Cu]Cu-DOTATATE, metal not drawn]
A: 2.1

###

assay: Timed organ biodistribution of [^64Cu]Cu-DOTATATE by ex vivo gamma counting; format: in vivo, mice; conditions: mouse, lungs, intravenous, 1.85 MBq, total radioactivity; female Apoe^-/- mice 12 weeks on Western Diet, 30 min after injection, median (IQR), N=3-8; read-out: Tissue radioactivity, lungs
REPORTED ENDPOINT: tissue uptake at 0.5 h (%ID/g)
Response body: numeric value in %ID/g, unit text excluded.

Q: Any idea what its tissue uptake at 0.5 h is? The compound is C[C@@H](O)[C@H](NC(=O)[C@@H]1CSSC[C@H](NC(=O)[C@@H](Cc2ccccc2)NC(=O)CN2CCN(CC(=O)O)CCN(CC(=O)O)CCN(CC(=O)O)CC2)C(=O)N[C@@H](Cc2ccc(O)cc2)C(=O)N[C@H](Cc2c[nH]c3ccccc23)C(=O)N[C@@H](CCCCN)C(=O)N[C@@H]([C@@H](C)O)C(=O)N1)C(=O)O [[^64Cu]Cu-DOTATATE, metal not drawn]
A: 1.6

###

assay: Timed organ biodistribution of [^64Cu]Cu-DOTATATE by ex vivo gamma counting; type: in vivo, mice; conditions: mouse, adrenal gland, intravenous, 1.85 MBq, total radioactivity; female C57BL/6 mice, 15 min after injection, median (IQR), N=3-7; read-out: Tissue radioactivity, adrenal gland
REPORTED ENDPOINT: tissue uptake at 0.25 h (%ID/g)
Response body: numeric value in %ID/g, unit text excluded.

Q: Any idea what its tissue uptake at 0.25 h is? The compound is C[C@@H](O)[C@H](NC(=O)[C@@H]1CSSC[C@H](NC(=O)[C@@H](Cc2ccccc2)NC(=O)CN2CCN(CC(=O)O)CCN(CC(=O)O)CCN(CC(=O)O)CC2)C(=O)N[C@@H](Cc2ccc(O)cc2)C(=O)N[C@H](Cc2c[nH]c3ccccc23)C(=O)N[C@@H](CCCCN)C(=O)N[C@@H]([C@@H](C)O)C(=O)N1)C(=O)O [[^64Cu]Cu-DOTATATE, metal not drawn]
A: 1.7

###

assay: Timed organ biodistribution of [^64Cu]Cu-DOTATATE by ex vivo gamma counting; type: in vivo, mice; settings: mouse, thoracic aorta, intravenous, 1.85 MBq, total radioactivity; female C57BL/6 mice, 30 min after injection, median (IQR), N=3-7; read-out: Tissue radioactivity, thoracic aorta
REPORTED ENDPOINT: tissue uptake at 0.5 h
The number alone won't do; follow it with the unit.

Q: Any idea what its tissue uptake at 0.5 h is? The compound is C[C@@H](O)[C@H](NC(=O)[C@@H]1CSSC[C@H](NC(=O)[C@@H](Cc2ccccc2)NC(=O)CN2CCN(CC(=O)O)CCN(CC(=O)O)CCN(CC(=O)O)CC2)C(=O)N[C@@H](Cc2ccc(O)cc2)C(=O)N[C@H](Cc2c[nH]c3ccccc23)C(=O)N[C@@H](CCCCN)C(=O)N[C@@H]([C@@H](C)O)C(=O)N1)C(=O)O [[^64Cu]Cu-DOTATATE, metal not drawn]
A: 1.3 %ID/g

###

assay: Timed organ biodistribution of [^64Cu]Cu-DOTATATE by ex vivo gamma counting; type: in vivo, mice; details: mouse, small intestine, intravenous, 1.85 MBq, total radioactivity; female C57BL/6 mice, 60 min after injection, median (IQR), N=3-7; read-out: Tissue radioactivity, small intestine
REPORTED ENDPOINT: tissue uptake at 1 h (%ID/g)
Response body: numeric value in %ID/g, unit text excluded.

Q: Any idea what its tissue uptake at 1 h is? The molecule is C[C@@H](O)[C@H](NC(=O)[C@@H]1CSSC[C@H](NC(=O)[C@@H](Cc2ccccc2)NC(=O)CN2CCN(CC(=O)O)CCN(CC(=O)O)CCN(CC(=O)O)CC2)C(=O)N[C@@H](Cc2ccc(O)cc2)C(=O)N[C@H](Cc2c[nH]c3ccccc23)C(=O)N[C@@H](CCCCN)C(=O)N[C@@H]([C@@H](C)O)C(=O)N1)C(=O)O [[^64Cu]Cu-DOTATATE, metal not drawn]
A: 2.4
